Target: T1, mutated human c-MET antigen with murine membrane-distal epitopes (extracellular domains fused to a truncated … (human/murine chimera))
T1 construct: also called cMET-10
T1 chain: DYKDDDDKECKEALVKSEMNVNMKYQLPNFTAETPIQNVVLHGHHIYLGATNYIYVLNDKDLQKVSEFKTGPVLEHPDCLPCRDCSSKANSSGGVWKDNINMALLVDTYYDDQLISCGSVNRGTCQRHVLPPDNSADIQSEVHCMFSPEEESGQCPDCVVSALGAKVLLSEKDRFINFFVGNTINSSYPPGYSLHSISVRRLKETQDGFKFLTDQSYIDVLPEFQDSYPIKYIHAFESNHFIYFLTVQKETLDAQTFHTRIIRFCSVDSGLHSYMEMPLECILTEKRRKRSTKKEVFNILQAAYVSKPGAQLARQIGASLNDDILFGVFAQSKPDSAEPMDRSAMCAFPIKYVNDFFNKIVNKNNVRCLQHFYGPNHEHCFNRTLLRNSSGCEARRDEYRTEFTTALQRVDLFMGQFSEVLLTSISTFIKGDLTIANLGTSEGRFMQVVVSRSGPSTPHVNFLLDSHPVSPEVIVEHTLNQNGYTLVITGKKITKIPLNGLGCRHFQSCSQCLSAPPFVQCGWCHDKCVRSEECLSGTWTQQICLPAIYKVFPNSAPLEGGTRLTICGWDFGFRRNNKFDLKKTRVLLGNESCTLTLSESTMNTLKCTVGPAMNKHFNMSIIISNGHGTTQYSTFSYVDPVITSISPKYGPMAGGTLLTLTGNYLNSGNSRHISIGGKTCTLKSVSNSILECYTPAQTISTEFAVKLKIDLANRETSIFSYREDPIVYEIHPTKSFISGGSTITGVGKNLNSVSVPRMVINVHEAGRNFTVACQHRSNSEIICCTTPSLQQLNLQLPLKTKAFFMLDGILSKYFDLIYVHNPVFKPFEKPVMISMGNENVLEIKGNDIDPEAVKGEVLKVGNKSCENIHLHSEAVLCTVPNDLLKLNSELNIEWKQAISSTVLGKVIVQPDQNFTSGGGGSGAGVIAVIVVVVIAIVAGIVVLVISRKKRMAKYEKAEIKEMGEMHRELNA
Experiment: FACS, CHO transfectants, periplasmic preparation
Outcome Measure: binding result

## Input Read the entry ME06D2HL (scFv, murine anti-c-MET scFv; E. coli periplasmic preparation) scFv: EVQLLEQSGADLVRPGTSVKLSCKAAGYTFSRYWISWIRQRPGHGLEWIGEIYPGGGYGNYNENFKDKVTLTADTSSSTAYMQLSSLTSEDSAIYYCARSGYDYGSKYDYYGLDYWGQGTTVTVSSGGGGSGGGGSGGGGSELVMTQSPSSMYASLGERVTITCKASQDINSYLSWFQQKPGKSPKTLIYRANRLVDGVPSRFSGSGSGQDYSLTISSLEYEDMGIYYCLQYDAFPPTFGAGTKLEIKTGDYKDDDDKHHHHHH and write its reported binding result.
## Output binds

## Input Please give the documented binding result of ME06C6HL (scFv, murine anti-c-MET scFv; E. coli periplasmic preparation) scFv: EVQLLEQSGAELVRPGTSVKIPCKATGYTFSYYWIGWVKQRPGHGLEWIGDIYPGGGYSNYNEKFKGKATLTADTSSSTAYMQLSGLTSEDSAIYYCARSGYDYGSDYDYHGLDYWGQGTTVTVSSGGGGSGGGGSGGGGSELVLTQSPASLAVSLGQRATISCRASESVEYYGTSLMQWYQQKPGQPPKLLIYAASNVESGVPARFSGSGSGTDFSLNIHPVEEDDIAMYFCQQSRKVPYTFGGGTKLEIKTGDYKDDDDKHHHHHH
## Output binds
